System: HeLa cells
Experiment: Compound screen by flow cytometry: HeLa cell count as surrogate readout of cell viability (z-scoreHeLa)
Assay type: cell-based, human
Conditions: PKIS compound screen, HeLa cell count, replicate 2
compounds and their reported z-scoreHeLa rep 2
Lab note: jot the number down without any unit.

// below: answered compounds
>>> print(df.to_string())
                                   compound  endpointresult
0  COc1cc2ncn(-c3cc(OCc4ccccc4C(F)(F)F)c(C(=O)N(C)C)s3)c2cc1OC [GSK1030062A]           -0.63
1  CS(=O)(=O)CCNCc1cc(-c2cc3c(Nc4ccc(OCc5cccc(F)c5)c(Cl)c4)ncnc3s2)cs1 [GSK300014A]            0.63
2  Fc1ccc(-c2ncn(C3CCNCC3)c2-c2ccnc(Oc3ccc(F)c(F)c3)n2)cc1           -1.22
3  COc1cc(Nc2nccc(N3CCC(NC(=O)C(C)c4ccc(Cl)cc4)C3)n2)cc(OC)c1OC (centres unmarked) [GSK1379757A]            0.31
4  CN(C)CCCNc1nccc(-c2c(-c3ccc(F)cc3)nn3cc(C(F)(F)F)ccc23)n1 [GW618013A]           -1.92

**Q:** Quick check: z-scoreHeLa rep 2 of [O-][S+]1CCN(Cc2ccc(-c3ccc4ncnc(Nc5ccc(OCc6cccc(F)c6)c(Cl)c5)c4c3)o2)CC1 [GW576609A] ?
**A:** 0.23

**Q:** Would you kindly repeat that for Cc1cc(O)cc(C)c1/C=C/c1cncc(C(N)=O)c1 [GW435821X] ?
**A:** -1.62

**Q:** Would you kindly repeat that for COc1ccc(Nc2nccc(N3CCC(NC(=O)Nc4cccc(C(C)=O)c4)C3)n2)cc1 (centres unmarked) [GSK1379731A] ?
**A:** 0.71

====

Tested on: HeLa cells
Experiment: Compound screen by flow cytometry: HeLa cell count as surrogate readout of cell viability (z-scoreHeLa)
Format: cell-based, human
Conditions: PKIS compound screen, HeLa cell count, replicate 2
quantityMeasured: z-scoreHeLa rep 2

// below: answered compounds
>>> print(df.to_string())
                                   compound   quantitymeasured  endpointresult
0  CC(C)c1nc(-c2cccc(NS(=O)(=O)c3ccccc3)c2)c(-c2ccnc(Nc3ccc4c(c3)CN(C)CC4)n2)s1 [GSK1649598A]  z-scoreHeLa rep 2           -0.84
1  Cc1ccc(NC(=O)c2ccnc(N3CCN(C)CC3)c2)cc1-c1ccc(C(=O)NCC2CC2)cc1 [GW775604X]  z-scoreHeLa rep 2           -1.26
2  NS(=O)(=O)c1cccc(-c2cc3ccncc3cc2OCc2ccccc2)c1 [GSK980961A]  z-scoreHeLa rep 2           -1.15
3  COc1cc2c(Nc3cccc(NC(=O)c4ccccc4)c3)ncnc2cc1OCCCN1CCOCC1 [GSK223810A]  z-scoreHeLa rep 2           -0.07
4  Cc1cc(NCC(c2ccccc2)c2ccccc2)nc(NCc2ccc(C(F)(F)F)cc2)n1 [GW497681X]  z-scoreHeLa rep 2           -3.27
5  CCn1c(-c2nonc2N)nc2c(C#CC(C)(C)O)nc(OC[C@@H](N)c3ccccc3)cc21 [GSK938890A]  z-scoreHeLa rep 2            0.12

**Q:** Quick check: z-scoreHeLa rep 2 of CC(C)(C)c1ccc2nccc(Nc3cccc(O)c3)c2c1 [GW856795X] ?
**A:** -1.52

**Q:** Would you kindly repeat that for NC(=O)c1cccc(Nc2nccc(Nc3ccc(Oc4cccc(Cl)c4)c(Cl)c3)n2)c1 [GW659008A] ?
**A:** 0.73

====

Test system: HeLa cells
Test: Compound screen by flow cytometry: HeLa cell count as surrogate readout of cell viability (z-scoreHeLa)
Format: cell-based, human
Conditions: compound screen, HeLa cell count, replicate 1
Recorded z-scoreHeLa rep 1 determines the group label, using range 1 (below -1), range 2 (-1 to below 0.07), range 3 (0.07 or more)

>>> print(df.to_string())
                                   molecule    label
0  Fc1cc(Cl)ccc1Nc1ccnc2cc(-c3ccc(CN4CCCCC4)o3)ccc12 [GW560116X]  range 1
1  Nc1nc(-c2ccc3c(c2)C(=Cc2cc(Br)c(O)c(Br)c2)C(=O)N3)cs1 [GW407323A]  range 3
2  O=S(=O)(CCOCc1ccc(-c2ccc3ncnc(Nc4ccc(OCc5cccc(F)c5)c(Cl)c4)c3c2)o1)c1ccccc1 [GW615311X]  range 2
3  CN(c1ccc2c(c1)nc(NCc1ccccc1)n2C)c1ccnc(Nc2ccc(CS(C)(=O)=O)cc2)n1 [GW811603A]  range 2
4  Fc1cccc(COc2ccc(Nc3ncnc4cc(-c5ccc[nH]5)sc34)cc2Cl)c1 [GW693881A]  range 3

Next:
**Q:** Assign a bin to O=S(=O)(c1cccc(F)c1)c1ccc(Nc2ncnc3cc(Br)sc23)cc1Cl [GSK306886A]
**A:** range 1

====

System: HeLa cells
Assay: Compound screen by flow cytometry: HeLa cell count as surrogate readout of cell viability (z-scoreHeLa)
Type: cell-based, human
Conditions: compound screen, HeLa cell count, replicate 1
quantityMeasured: z-scoreHeLa rep 1

>>> df
                                   compound  endpointresult
0  CS(=O)(=O)CCN(CC#N)Cc1ccc(-c2ccc3ncnc(Nc4ccc(OCc5cccc(F)c5)c(Cl)c4)c3c2)o1 [GW616030X]           -1.76

**Q:** Value wanted: z-scoreHeLa rep 1 (HeLa cells) of entry O=C(Nc1n[nH]c2cc(-c3ccsc3)ccc12)C1CC1 [SB-732932]
**A:** 1.39

**Q:** Would you kindly repeat that for Cc1ccc(C(=O)Nc2ccc(Nc3ccnc4cc(-c5ccccn5)ccc34)cc2O)cc1 [GW440146A] ?
**A:** 0.32

**Q:** Would you kindly repeat that for COc1ccc(Nc2nccc(-c3ccc(NC(=O)c4cc5cc(F)ccc5[nH]4)cc3)n2)cc1 [GSK1229496A] ?
**A:** -0.11

====

Tested on: intracellular MRSA
Assay type: cell-based, Staphylococcus aureus
Settings: PKIS compound screen, MRSA-infected HeLa cells, replicate 1
Recorded z-scoreMRSA+ rep 1 determines the group label, using label 0 (below -0.4), label 1 (-0.4 to below 0.01), label 2 (0.01 or more)

Look over these answered cases.
>>> print(df.to_string())
                                   compound        testedsystem    label
0  CN1CCC(n2cnc(-c3ccc(F)cc3)c2-c2ccnc(Nc3ccccc3)n2)CC1  intracellular MRSA  label 0
1  CC(C)c1nc(-c2ccc(F)c(NS(=O)(=O)c3c(F)cccc3F)c2)c(-c2ccnc(Nc3ccc(N4CCOCC4)nc3)n2)s1 [GSK1804250A]  intracellular MRSA  label 0
2  COc1cc2nccc(Nc3cccc(Oc4ccccc4)c3)c2cc1OC [GW284543A]  intracellular MRSA  label 2
3  OCCCNc1nccc(-c2c(-c3ccc(F)cc3)nn3cc(C(F)(F)F)ccc23)n1 [GW569293E]  intracellular MRSA  label 1
4  O=C(Nc1ccccc1F)NC1CCN(c2ccnc(Nc3ccc(F)cc3)n2)C1 (stereo not shown) [GSK1379722A]  intracellular MRSA  label 2
5  COc1ccc(Nc2nccc(N3CCC(NC(=O)C(C)c4ccc(Cl)cc4)CC3)n2)cc1 (stereo not shown) [GSK1379812A]  intracellular MRSA  label 2
6  COC(=O)c1cccc(NC(=O)NC2CCN(c3ccnc(NCc4ccc(F)cc4)n3)CC2)c1 [GSK1379860A]  intracellular MRSA  label 1
7  Cc1c(Cn2ccn3c(=O)cc(N4CCOCC4)nc23)cccc1C(F)(F)F [GSK2289044B]  intracellular MRSA  label 0

**Q:** Assign a bin to c1ccc(Oc2ccc(Nc3ccnc4cc(-c5ccc(CN6CCNCC6)o5)ccc34)cc2)nc1 [GW567142A]
**A:** label 1

**Q:** Would you kindly repeat that for COc1ccc(Nc2nccc(N3CCC(NC(=O)Nc4cccc(OC)c4)C3)n2)cc1 (stereo not shown) [GSK1379742A] ?
**A:** label 2

====

System: HeLa cells
Test: Compound screen by flow cytometry: HeLa cell count as surrogate readout of cell viability (z-scoreHeLa)
Type: cell-based, human
Conditions: PKIS compound screen raw data, HeLa cell count, replicate 3
Description: The cells were resuspended in cell culture medium without antibiotics, seeded with 10,000 cells/well into Costar flat-bottom 96-well plates (Corning, Amsterdam, the Netherlands), and were incubated overnight at 37°C/5% CO2. […] The calculated mean MOI throughout all experiments was 6.8 ± 4.6 (mean ± SD). […] HeLa cells were harvested by trypsinization and fixed with 1% paraformaldehyde. Samples were measured on a FACSLyric with HTS extension (BD Biosciences). […]
compounds and their reported cell count rep 3

// below: answered compounds
                                   compound  testedsystem  quantitymeasured  endpointresult
0  Cc1ccc(NC(=O)c2ccc(Cl)cc2)cc1-c1ccc(C(=O)Nc2ccncc2)cc1 [GSK1398467A]    HeLa cells  cell count rep 3           20345
1  Cn1cc(-c2ccc3c(c2)CCN3C(=O)Cc2cc(F)cc(F)c2F)c2c(N)ncnc21 [GSK2634140A]    HeLa cells  cell count rep 3            2693
2  CN(c1ccc2c(c1)nc(NCc1ccc(F)cc1)n2C)c1ccnc(Nc2ccc(CS(C)(=O)=O)cc2)n1 [GW813244A]    HeLa cells  cell count rep 3           36349
3  Nc1ncc(-c2ccncc2)c2scc(-c3ccc4c(c3)CCN4C(=O)Cc3ccccc3)c12 [GSK2592465A]    HeLa cells  cell count rep 3            5392

**Q:** Quick check: cell count rep 3 of COc1ccc(CNC(=O)NC2CCN(c3ccnc(Nc4cc(OC)c(OC)c(OC)c4)n3)C2)cc1 (stereo not shown) [GSK1379748A] ?
**A:** 5664

**Q:** Would you kindly repeat that for CS(=O)(=O)Nc1ccc(-c2cc(-c3ccccc3)cc(C(N)=O)c2N)cc1 [GSK586581A] ?
**A:** 41123

**Q:** Would you kindly repeat that for COc1ccc(CNC(=O)NC2CCN(c3ccnc(Nc4ccc(F)cc4)n3)CC2)cc1 [GSK1379788A] ?
**A:** 7721
